Data credit: patent US20230158141A1

measurement.target: T1, IL-10R1-Fc (UniProt Q13651 22-235, limits assumed)
T1 sequence (looked up): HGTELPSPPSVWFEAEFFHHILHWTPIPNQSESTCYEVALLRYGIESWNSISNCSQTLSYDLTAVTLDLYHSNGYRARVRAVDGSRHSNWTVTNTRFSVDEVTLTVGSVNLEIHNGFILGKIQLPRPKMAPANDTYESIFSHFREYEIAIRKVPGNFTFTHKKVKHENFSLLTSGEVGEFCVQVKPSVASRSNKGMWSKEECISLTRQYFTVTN
measurement.description: ELISA, IL-10R1-Fc coated
Hi there, I'd appreciate the recorded Decreased fold of binding to ligand after Conjugating with S48 for every entry that follows.
Reply with a number, then the unit it belongs to.

Worked examples follow.
{"columns": ["binder", "value"],
 "data": [
  ["IL-10 Ile158Cys-S48 (ligand, human, UniProt P22301 19-178, looked up, S48 on Cys 158, mature) SPGQGTQSENSCTHFPGNLPNMLRDLRDAFSRVKTFFQMKDQLDNLLLKESLLEDFKGYLGCQALSEMIQFYLEEVMPQAENQDPDIKAHVNSLGENLKTLRLRLRRCHRFLPCENKSKAVEQVKNAFNKLQEKGIYKAMSEFDIFINYIEAYMTMKCRN", "9 fold"],
  ["IL-10 Lys117Cys-S48 (ligand, human, UniProt P22301 19-178, looked up, S48 on Cys 117, mature) SPGQGTQSENSCTHFPGNLPNMLRDLRDAFSRVKTFFQMKDQLDNLLLKESLLEDFKGYLGCQALSEMIQFYLEEVMPQAENQDPDIKAHVNSLGENLKTLRLRLRRCHRFLPCENCSKAVEQVKNAFNKLQEKGIYKAMSEFDIFINYIEAYMTMKIRN", "3 fold"],
  ["IL-10 Tyr137Cys-S48 (ligand, human, UniProt P22301 19-178, looked up, S48 on Cys 137, mature) SPGQGTQSENSCTHFPGNLPNMLRDLRDAFSRVKTFFQMKDQLDNLLLKESLLEDFKGYLGCQALSEMIQFYLEEVMPQAENQDPDIKAHVNSLGENLKTLRLRLRRCHRFLPCENKSKAVEQVKNAFNKLQEKGICKAMSEFDIFINYIEAYMTMKIRN", "5 fold"],
  ["IL-10 Phe111Cys-S48 (ligand, human, UniProt P22301 19-178, looked up, S48 on Cys 111, mature) SPGQGTQSENSCTHFPGNLPNMLRDLRDAFSRVKTFFQMKDQLDNLLLKESLLEDFKGYLGCQALSEMIQFYLEEVMPQAENQDPDIKAHVNSLGENLKTLRLRLRRCHRCLPCENKSKAVEQVKNAFNKLQEKGIYKAMSEFDIFINYIEAYMTMKIRN", "12 fold"]
]}

Dear colleague, could you please provide Decreased fold of binding to ligand after Conjugating with S48 for the binders listed below?
1. IL-10 Thr155Cys-S48 (ligand, human, UniProt P22301 19-178, looked up, S48 on Cys 155, mature) SPGQGTQSENSCTHFPGNLPNMLRDLRDAFSRVKTFFQMKDQLDNLLLKESLLEDFKGYLGCQALSEMIQFYLEEVMPQAENQDPDIKAHVNSLGENLKTLRLRLRRCHRFLPCENKSKAVEQVKNAFNKLQEKGIYKAMSEFDIFINYIEAYMCMKIRN
2. IL-10 Asp144Cys-S48 (ligand, human, UniProt P22301 19-178, looked up, S48 on Cys 144, mature) SPGQGTQSENSCTHFPGNLPNMLRDLRDAFSRVKTFFQMKDQLDNLLLKESLLEDFKGYLGCQALSEMIQFYLEEVMPQAENQDPDIKAHVNSLGENLKTLRLRLRRCHRFLPCENKSKAVEQVKNAFNKLQEKGIYKAMSEFCIFINYIEAYMTMKIRN
3. IL-10 Asn148Cys-S48 (ligand, human, UniProt P22301 19-178, looked up, S48 on Cys 148, mature) SPGQGTQSENSCTHFPGNLPNMLRDLRDAFSRVKTFFQMKDQLDNLLLKESLLEDFKGYLGCQALSEMIQFYLEEVMPQAENQDPDIKAHVNSLGENLKTLRLRLRRCHRFLPCENKSKAVEQVKNAFNKLQEKGIYKAMSEFDIFICYIEAYMTMKIRN
4. IL-10 Thr6Cys-S48 (ligand, human, UniProt P22301 19-178, looked up, S48 on Cys 6, mature) SPGQGCQSENSCTHFPGNLPNMLRDLRDAFSRVKTFFQMKDQLDNLLLKESLLEDFKGYLGCQALSEMIQFYLEEVMPQAENQDPDIKAHVNSLGENLKTLRLRLRRCHRFLPCENKSKAVEQVKNAFNKLQEKGIYKAMSEFDIFINYIEAYMTMKIRN
5. IL-10 Ser93Cys-S48 (ligand, human, UniProt P22301 19-178, looked up, S48 on Cys 93, mature; the row prints S in one column and Asp in the next) SPGQGTQSENSCTHFPGNLPNMLRDLRDAFSRVKTFFQMKDQLDNLLLKESLLEDFKGYLGCQALSEMIQFYLEEVMPQAENQDPDIKAHVNCLGENLKTLRLRLRRCHRFLPCENKSKAVEQVKNAFNKLQEKGIYKAMSEFDIFINYIEAYMTMKIRN
6. IL-10 Leu53Cys-S48 (ligand, human, UniProt P22301 19-178, looked up, S48 on Cys 53, mature) SPGQGTQSENSCTHFPGNLPNMLRDLRDAFSRVKTFFQMKDQLDNLLLKESLCEDFKGYLGCQALSEMIQFYLEEVMPQAENQDPDIKAHVNSLGENLKTLRLRLRRCHRFLPCENKSKAVEQVKNAFNKLQEKGIYKAMSEFDIFINYIEAYMTMKIRN
7. IL-10 Asp44Cys-S48 (ligand, human, UniProt P22301 19-178, looked up, S48 on Cys 44, mature) SPGQGTQSENSCTHFPGNLPNMLRDLRDAFSRVKTFFQMKDQLCNLLLKESLLEDFKGYLGCQALSEMIQFYLEEVMPQAENQDPDIKAHVNSLGENLKTLRLRLRRCHRFLPCENKSKAVEQVKNAFNKLQEKGIYKAMSEFDIFINYIEAYMTMKIRN

Reply |
["3 fold", "15 fold", "10 fold", "3 fold", "3 fold", "3 fold", "43 fold"]

Dear colleague, could you please provide Decreased fold of binding to ligand after Conjugating with S48 for the binders listed below?
1. IL-10 Asn45Cys-S48 (ligand, human, UniProt P22301 19-178, looked up, S48 on Cys 45, mature) SPGQGTQSENSCTHFPGNLPNMLRDLRDAFSRVKTFFQMKDQLDCLLLKESLLEDFKGYLGCQALSEMIQFYLEEVMPQAENQDPDIKAHVNSLGENLKTLRLRLRRCHRFLPCENKSKAVEQVKNAFNKLQEKGIYKAMSEFDIFINYIEAYMTMKIRN
2. IL-10 Ser51Cys-S48 (ligand, human, UniProt P22301 19-178, looked up, S48 on Cys 51, mature) SPGQGTQSENSCTHFPGNLPNMLRDLRDAFSRVKTFFQMKDQLDNLLLKECLLEDFKGYLGCQALSEMIQFYLEEVMPQAENQDPDIKAHVNSLGENLKTLRLRLRRCHRFLPCENKSKAVEQVKNAFNKLQEKGIYKAMSEFDIFINYIEAYMTMKIRN

Reply |
1. 7 fold
2. 3 fold
